Plasminogen (Homo sapiens): recorded pKi for assorted compounds
Sequence (P00747 97-580 limits assumed): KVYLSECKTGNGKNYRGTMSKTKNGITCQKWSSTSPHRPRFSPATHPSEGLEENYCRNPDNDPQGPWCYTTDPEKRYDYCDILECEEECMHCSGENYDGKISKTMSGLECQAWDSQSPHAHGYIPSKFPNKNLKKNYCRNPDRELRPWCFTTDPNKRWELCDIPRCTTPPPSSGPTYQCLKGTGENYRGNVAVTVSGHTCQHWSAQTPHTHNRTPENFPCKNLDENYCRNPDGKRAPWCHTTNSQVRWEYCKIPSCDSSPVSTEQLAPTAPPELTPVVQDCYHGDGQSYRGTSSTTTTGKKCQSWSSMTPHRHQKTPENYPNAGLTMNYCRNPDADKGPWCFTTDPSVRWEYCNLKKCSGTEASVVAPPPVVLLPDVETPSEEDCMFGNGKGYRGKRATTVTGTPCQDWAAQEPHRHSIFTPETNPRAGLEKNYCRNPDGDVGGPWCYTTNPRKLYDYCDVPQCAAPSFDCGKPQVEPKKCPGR
Sequence (P00747 581-810 limits assumed): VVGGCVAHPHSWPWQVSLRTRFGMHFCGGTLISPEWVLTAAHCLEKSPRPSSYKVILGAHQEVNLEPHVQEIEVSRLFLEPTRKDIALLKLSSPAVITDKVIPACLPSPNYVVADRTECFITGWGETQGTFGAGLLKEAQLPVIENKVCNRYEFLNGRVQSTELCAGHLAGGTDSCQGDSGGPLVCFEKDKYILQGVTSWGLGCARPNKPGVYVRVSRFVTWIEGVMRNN
Worth noting: pKi values are minus log10 of concentrations stated in mol/L.

Reference set (4 entries):
CC(C)C1=NCCc2ccc([C@H]3CC3c3ccc4cc(C(=N)N)ccc4c3)cc21 (some centres not stated)	5.83
N=C(N)c1ccc2cc(/C=C/c3ccccc3)cc(-c3ccoc3)c2c1	6.87
N=C(N)c1ccc2cc(C3CC3c3ccc4c(c3)C(C3CCCCC3)=NCC4)ccc2c1 (configuration not stated)	6.23
N=C(N)c1ccc2cc(C3CC3c3ccccc3)cc(Br)c2c1 (configuration not stated)	6.62

Query: Find the measured pKi: item CC(C)Oc1cccc(C2CC2c2ccc3cc(C(=N)N)ccc3c2)c1 (configuration not stated) , target or system Plasminogen (Homo sapiens).
Result: 5.61

Query: Observed pKi on Plasminogen (Homo sapiens) for CN1CCc2ccc(C3CC3c3ccc4cc(C(=N)N)ccc4c3)cc2C1C1CCCCC1 (configuration not stated) , please.
Result: 6.09

Query: What value of pKi on Plasminogen (Homo sapiens) does CC(C)C1c2cc(C3CC3c3ccc4cc(C(=N)N)ccc4c3)ccc2CCN1C (configuration not stated) have?
Result: 5.89

Query: Plasminogen (Homo sapiens) / pKi / N=C(N)c1ccc2cc(C3CC3c3ccccc3)cc(Nc3ncccn3)c2c1 (configuration not stated) : value?
Result: 6.61

Query: Test system Plasminogen (Homo sapiens); read-out pKi; what value for N=C(N)c1ccc2cc(/C=C/c3ccccc3)cc(Nc3ncccn3)c2c1 ?
Result: 6.56

Query: Item N=C(N)c1ccc2cc(C(=O)Nc3ccccc3)cc(Br)c2c1 with Plasminogen (Homo sapiens) - pKi?
Result: 5.99

Query: So what pKi did N=C(N)c1ccc2cc(CCc3ccccc3)cc(Nc3ncccn3)c2c1 get with Plasminogen (Homo sapiens)?
Result: 6.24

Query: # get_value(readout= pKi, system= Plasminogen (Homo sapiens)) for N=C(N)c1ccc2cc(C3CC3c3ccccc3)ccc2c1 (configuration not stated)
Result: 5.45
